Molecular target: CaRvs167-3
Assay: SPOT peptide array binding signal intensity (averaged, normalized) (arbitrary units (background-subtracted, floor 0; scale differs between SH3 domains)); higher = stronger binding of the SH3 domain to the peptide
observation-type: SPOT peptide array binding signal intensity
Please respond with just the number, no unit label.

Please review the following examples before continuing.
HRRRRVFSIPSLKSI 319
FYNRTAFQLPGDARV 3.5
TKRKRPARLIFYDSK 240
KTRLRPAFIQQLWSS 2

Next:
The binder listed as NFFRKKLGIPRKLKR has a reported SPOT peptide array binding signal intensity of 47
